assay target: Ba/F3-Syk cells (Homo sapiens)
Construct: fused on or other part: Possible but unprinted fusion partner: TEL (ETV6), the usual partner for Ba/F3 lines transformed by Syk; Nothing on a partner is printed
assay procedure: Ba/F3 Proliferation Assay, Ba/F3-Syk cells (Resazurin)
study conditions: 48-hour incubation
pEC50: −log10 of the molar value.
metric: pEC50

CC(C)n1ccc(-c2cc(OC[C@@H]3CNCCO3)c3cccnc3c2)c1    7.32

a. CC1(C)CNC[C@@H](COc2cc(-c3ccn(C4CCC4)c3)cc3ncccc23)O1
b. CC(C)n1ccc(-c2cc(O[C@H](C)[C@@H]3CNCC(C)(C)O3)c3nccnc3c2)c1
c. Cc1ccc(-c2cc3ncccc3c(OC[C@@H]3CNCCO3)n2)s1
input: Arrange the 3 compounds from largest to smallest pEC50. Answer with the labels in sequence, matching the requested order.
output: b, a, c
(b: 8.20, a: 7.44, c: 6.70)

* * *

assay target: Ba/F3-Syk cells (Homo sapiens, UniProt P43405)
Construct: fused on or other part: Possible but unprinted fusion partner: TEL (ETV6), the usual partner for Ba/F3 lines transformed by Syk; Nothing on a partner is printed
assay procedure: Ba/F3 Proliferation Assay, Ba/F3-Syk cells (Resazurin)
study conditions: 48-hour incubation
metric: EC50 (nM)

// solved cases for EC50 follow
CC[C@H](C)n1ccc(-c2cc(OC[C@@H]3CNCCO3)c3nccnc3c2)c1    11.5
c1cnc2cc(-c3cnn4c3CCCC4)nc(OC[C@@H]3CNCCO3)c2c1    663
c1cnc2cc(-c3ccn(C4CCC4)c3)nc(OC[C@@H]3CNCCO3)c2c1    51.9
CC1(C)CNC[C@@H](COc2nc(-c3cnn4c3CCCC4)cc3ncccc23)O1    365
COCCn1ccc(-c2cc(OC[C@@H]3CNCCO3)c3cccnc3c2)c1    234

P. CC1(C)CNC[C@@H](COc2nc(-c3cnn(C4(C)CC4)c3)cc3ncccc23)O1
Q. Cc1ccnc2cc(-c3cnn(C(C)C)c3)cc(OC[C@@H]3CNCC(C)(C)O3)c12 (stereo in doubt)
input: Would you let me know which has the greater EC50 value, P or Q ? Output the label that corresponds to your choice.
output: P
(P: 17.6 nM, Q: 2.4 nM)

* * *

Test system: Ba/F3-WT (wild type) cells
assay procedure: Ba/F3 Proliferation Assay, Ba/F3-WT (wild type) cells with mIL-3 (Resazurin)
Type: cell-based
study conditions: Mus musculus, BaF3, 48 h, Ba/F3-WT cells +mIL-3, 48-hour incubation
pEC50: −log10 of the molar value.
metric: pEC50

// solved cases for pEC50 follow
Cc1cnc2cc(-c3cnn(C(C)C)c3)nc(OC[C@@H]3CNCC(C)(C)O3)c2c1    5.97
C[C@@H](Oc1nc(-c2cnn(C(C)(C)C)c2)cc2ncccc12)[C@@H]1CNCCO1    5.73
C[C@@H]1CNC[C@@H](COc2nc(-c3ccn(C)c3)cc3ncccc23)O1    5.27
C[C@@H](Oc1nc(-c2ccn(C(C)(C)C)c2)cc2ncccc12)[C@@H]1CNCCO1    5.36

A. CC1(C)CNC[C@@H](COc2nc(-c3cnn(CC4CC(F)(F)C4)c3)cc3ncccc23)O1
B. CC(C)n1ccc(-c2cc3ncccc3c(OC[C@@H]3CNCC(C)(C)O3)n2)c1
C. Clc1ccc(-c2cc3ncccc3c(OC[C@@H]3CNCCO3)n2)s1
input: Reorder the items by pEC50, least to greatest. Answer with the labels in sequence, matching the requested order.
output: B, C, A

* * *

assay target: Ba/F3-Syk cells (Homo sapiens, UniProt P43405)
Construct: fused on or other part: Possible but unprinted fusion partner: TEL (ETV6), the usual partner for Ba/F3 lines transformed by Syk; Nothing on a partner is printed
assay procedure: Ba/F3 Proliferation Assay, Ba/F3-Syk cells (Resazurin)
Assay type: cell-based
study conditions: 48-hour incubation
pEC50: −log10 of the molar value.
metric: pEC50

// solved cases for pEC50 follow
C[C@@H](Oc1nc(-c2ccn(C(C)(C)C)c2)cc2ncccc12)[C@@H]1CNCCO1    7.86
FC1(F)CC(Cn2ccc(-c3cc4ncccc4c(OC[C@@H]4CNCCO4)n3)c2)C1    7.82

a. CC(C)(C)n1ccc(-c2cc3ncccc3c(OC[C@@H]3CNCC4(CC4)O3)n2)c1
b. Cn1cc(-c2cc3ncccc3c(O[C@@H]([C@@H]3CNCCO3)C(F)(F)F)n2)cn1
input: For the pair a and b , which entry has the numerically smaller recorded pEC50? Output the label that corresponds to your choice.
output: b
(b: 6.10, a: 8.01)

* * *

assay target: UniProt:P43405
pIC50: −log10 of the molar value.
metric: pIC50

// solved cases for pIC50 follow
CC(C)n1ccc(-c2cc(OC[C@@H]3CNCCO3)c3nccnc3c2)c1    7.97
CC(C)n1cc(-c2cc(OC[C@@H]3CNC[C@@H](C)O3)c3cccnc3c2)cn1    7.90
FC(F)Cn1ccc(-c2cc(OC[C@@H]3CNCC4(CCC4)O3)c3nccnc3c2)c1    8.19
CCn1cc(-c2cc3ncccc3c(OC[C@@H]3CNCCO3)n2)cn1    7.81
CC(C)n1ccc(-c2cc3ncccc3c(OC[C@@H]3CNCC(C)(C)O3)n2)c1    7.85
CC(C)(C)n1ccc(-c2cc3ncccc3c(OC[C@@H]3CNCCO3)n2)c1    8.02

A. CC1(C)CNC[C@@H](COc2cc(-c3ccn(CC(F)F)c3)cc3nccnc23)O1
B. c1cnc2cc(-c3cn[nH]c3)nc(OC[C@@H]3CNCCO3)c2c1
C. CCc1ccnc2cc(-c3cnn(C(C)(C)C)c3)nc(OC[C@@H]3CNCC(C)(C)O3)c12
input: Reorder the items by pIC50, least to greatest. Answer with the labels in sequence, matching the requested order.
output: B, C, A

1. CC1(C)CNC[C@@H](COc2nc(-c3cnn(C(C)(C)C)c3)cc3ncccc23)O1
2. COCn1cc(-c2cc3ncccc3c(OC[C@@H]3CNCCO3)n2)cn1
input: Would you let me know which has the greater pIC50 value, 1 or 2 ? Output the label that corresponds to your choice.
output: 1

P. FC(F)Cn1ccc(-c2cc(OC[C@@H]3CNCCO3)c3cccnc3c2)c1
Q. Cn1ccc(-c2cc(OC[C@@H]3CNCCO3)c3cccnc3c2)c1
input: Would you let me know which has the greater pIC50 value, P or Q ? Output the label that corresponds to your choice.
output: P
(P: 8.00, Q: 7.32)

A. CC1(C)CNC[C@@H](COc2nc(-c3ccn(C(C)(C)C)c3)cc3ncccc23)O1
B. COCCn1cc(-c2cc3ncccc3c(OC[C@@H]3CNCCO3)n2)cn1
C. FC(F)n1cc(-c2cc3ncccc3c(OC[C@@H]3CNCCO3)n2)cn1
input: Arrange the 3 compounds from largest to smallest pIC50. Answer with the labels in sequence, matching the requested order.
output: A, B, C
(A: 8.00, B: 7.43, C: 7.13)

* * *

Test system: Ba/F3-WT (wild type) cells
assay procedure: Ba/F3 Proliferation Assay, Ba/F3-WT (wild type) cells with mIL-3 (Resazurin)
Type: cell-based
study conditions: Mus musculus, BaF3, 48 h, Ba/F3-WT cells +mIL-3, 48-hour incubation
metric: EC50 (nM)

// solved cases for EC50 follow
Cn1cc(-c2cc3ncccc3c(OC[C@H]3CNCCO3)n2)cn1    1760
c1cnc2cc(-c3ccn(C4CCC4)c3)cc(OC[C@@H]3CNCCO3)c2c1    2880
CC(C)(C)n1cc(-c2cc3ncccc3c(OCC3CNCCCO3)n2)cn1 (stereo not drawn)    3270

1. Cn1cc(-c2cc3ncccc3c(OCC3CNCC(C)(C)O3)n2)cn1 (stereo not drawn)
2. CC(C)(C)n1cc(-c2cc3ncccc3c(OC[C@H]3CNCCCO3)n2)cn1
3. Cn1cc(-c2cc3ncccc3c(OC[C@@H]3CNCC(C)(C)CO3)n2)cn1
4. COCCn1ccc(-c2cc(OC[C@@H]3CNCC(C)(C)O3)c3nccnc3c2)c1
input: Arrange the 4 compounds from largest to smallest EC50. Answer with the labels in sequence, matching the requested order.
output: 3, 1, 2, 4

* * *

assay target: Ba/F3-Syk cells (Homo sapiens, UniProt P43405)
Construct: fused on or other part: Possible but unprinted fusion partner: TEL (ETV6), the usual partner for Ba/F3 lines transformed by Syk; Nothing on a partner is printed
assay procedure: Ba/F3 Proliferation Assay, Ba/F3-Syk cells (Resazurin)
study conditions: 48-hour incubation
pEC50: −log10 of the molar value.
metric: pEC50

// solved cases for pEC50 follow
Cn1ccc(-c2cc(OC[C@@H]3CNCC4(CCC4)O3)c3cccnc3c2)c1    7.48
CC1(C)CNC[C@@H](COc2nc(-c3cnn(CC(F)F)c3)cc3ncccc23)O1    7.49
c1cnc2cc(-c3cnn(C4CCC4)c3)nc(OC[C@@H]3CNCCO3)c2c1    7.51
FC(F)Cn1cc(-c2cc3ncccc3c(OC[C@@H]3CNCCO3)n2)cn1    7.09
c1cnc2cc(-c3cnn(C4CC4)c3)nc(OC[C@@H]3CNCCO3)c2c1    7.21

P. FC(F)Cn1ccc(-c2cc(OC[C@@H]3CNCCO3)c3nccnc3c2)c1
Q. C[C@@H](Oc1cc(-c2ccn(CC(F)F)c2)cc2nccnc12)[C@@H]1CNCCO1
input: For the pair P and Q , which entry has the numerically smaller recorded pEC50? Output the label that corresponds to your choice.
output: P
(P: 7.79, Q: 8.05)

I. CCc1ccnc2cc(-c3cnn(C(C)(C)C)c3)nc(OC[C@@H]3CNCC(C)(C)O3)c12
II. CC(C)(C)n1cc(-c2cc3ncccc3c(OC[C@@H]3CNC[C@H](C(F)(F)F)O3)n2)cn1
III. Cn1cc(-c2cc3ncccc3c(OC[C@@H]3CNCC4(CC4)O3)n2)cn1
input: Reorder the items by pEC50, least to greatest. Answer with the labels in sequence, matching the requested order.
output: III, II, I
(III: 7.10, II: 7.38, I: 7.69)

1. CC(C)n1cc(-c2cc3ncccc3c(OC[C@@H]3CNCC4(CC4)O3)n2)cn1
2. c1cnc2cc(-c3ccn(CC4CC4)c3)nc(OC[C@@H]3CNCCO3)c2c1
3. C1=C(c2cc3ncccc3c(OC[C@@H]3CNCCO3)n2)CCC1
input: Arrange the 3 molecules from largest to smallest pEC50. Answer with the labels in sequence, matching the requested order.
output: 1, 2, 3

a. CC(C)(C)n1cc(-c2cc3ncccc3c(OC[C@@H]3CNCC4(CC4)O3)n2)cn1
b. CC(C)n1cc(-c2cc3ncccc3c(OC[C@]3(C)CNCCO3)n2)cn1
input: For the pair a and b , which entry has the numerically smaller recorded pEC50? Output the label that corresponds to your choice.
output: b

P. CC1(C)CNC[C@@H](COc2nc(-c3ccn(CC4CC4)c3)cc3ncccc23)O1
Q. Cn1cc(-c2cc3ncccc3c(OCC3CNCC(C)(C)O3)n2)cn1 (centres unmarked)
input: Would you let me know which has the greater pEC50 value, P or Q ? Output the label that corresponds to your choice.
output: P
